// values below are reported pIC50
# experimental_target: Ras farnesyl transferase (Rattus norvegicus, UniProt Q02293+Q04631)
# Construct: endogenous in cells; host or cells: Rat2 fibroblasts transformed with H-Ras or with an H-Ras/K-Ras C-terminus fusion
# run_description: In vivo (cellular) inhibitory activity for Ras farnesyl transferase, Rat2 cell line transformed with fused protein of H-Ras substituted with polybasic lysine domain at C-terminus of K-Ras
# Format: cell-based
# condition: Rat2 cell line transformed with H-Ras fused with polybasic lysine domain of K-Ras C-terminus; concentration inhibiting 50% of farnesyl bonding; read-out: K-Ras CIC50
pIC50: −log10 of the molar value.

Some solved cases for reference:
pIC50 for Cn1cnc(Cn2cc(C(=O)c3ccc(F)cc3)c(-c3cccc4ccccc34)c2)c1 ?
4.00 to 5.00

Thanks! And N#Cc1ccc(Cn2cncc2Cn2cc(C(=O)c3cccc(Br)c3)c(-c3cccc4ccccc34)c2)cc1 ?
4.00 to 5.00

Thanks! And O=C(c1ccc(Cl)cc1Cl)c1cn(Cc2c[nH]cn2)cc1-c1cccc2ccccc12 ?
4.00 to 5.00

Thanks! And Cc1ccc(C(=O)c2cn(Cc3c[nH]cn3)cc2-c2cccc3ccccc23)cc1 ?
4.00 to 5.00

Thanks! And O=C(c1ccsc1)c1cn(Cc2c[nH]cn2)cc1-c1cccc2ccccc12 ?
4.00 to 5.00

Thanks! And COCCN(C)C(=O)c1cn(Cc2cncn2Cc2cccc(Cl)c2)cc1-c1cccc2ccccc12 ?
4.30 to 5.00

Thanks! And CSCC[C@H](NC(=O)c1cn(CCCc2c[nH]cn2)cc1-c1cccc2ccccc12)C(=O)O ?
4.00 to 5.00

Thanks! And CSCCc1ccc(C(=O)c2cn(Cc3c[nH]cn3)cc2-c2cccc3ccccc23)cc1 ?
4.00 to 5.00

---
pIC50 for O=C(Nc1ccccc1)c1cn(Cc2c[nH]cn2)cc1-c1cccc2ccccc12 ?
4.00 to 5.00

Thanks! And O=C(NCCO)c1cn(Cc2c[nH]cn2)cc1-c1cccc2ccccc12 ?
4.00 to 5.00

* * *

# experimental_target: Ras farnesyl transferase (Rattus norvegicus, UniProt Q02293+Q04631)
# Construct: endogenous in cells; host or cells: Rat2 fibroblasts transformed with H-Ras or with an H-Ras/K-Ras C-terminus fusion
# run_description: In vivo (cellular) inhibitory activity for Ras farnesyl transferase, Rat2 cell line which expresses C-Harvey-Ras protein
# Assay type: cell-based
# condition: Rat2 cell line expressing C-Harvey-Ras; concentration inhibiting 50% of farnesyl bonding of Ras protein; read-out: H-Ras CIC50
// values below are reported IC50

Some solved cases for reference:
Test system Ras farnesyl transferase (Rattus norvegicus, UniProt Q02293+Q04631); read-out IC50; what value for COC(=O)[C@H](CC(C)C)NC(=O)c1cn(Cc2cncn2Cc2ccc(C#N)cc2)cc1-c1cccc2ccccc12 [Compound 102] ?
1 to 50 µM

Thanks! And O=C(c1cn(Cc2c[nH]cn2)cc1-c1cccc2ccccc12)N1CCSC1 [Compound 90] ?
1 to 50 µM

Thanks! And COC(=O)[C@H](CCSC)NC(=O)c1cn(CCCc2c[nH]cn2)cc1-c1cccc2ccccc12 [Compound 107] ?
1 to 50 µM

Thanks! And CC(C)C[C@H](NC(=O)c1cn(Cc2cncn2Cc2ccc(C#N)cc2)cc1-c1cccc2ccccc12)C(=O)O [Compound 103] ?
0.1 to 10 µM

Thanks! And O=C(c1cn(Cc2c[nH]cn2)cc1-c1ccc2c3c(cccc13)CC2)N1CCOCC1 [Compound 97] ?
10 to 100 µM

Shifting focus to the molecule that follows.
Test system Ras farnesyl transferase (Rattus norvegicus, UniProt Q02293+Q04631); read-out IC50; what value for O=C(Nc1ccccc1)c1cn(Cc2c[nH]cn2)cc1-c1cccc2ccccc12 [Compound 82] ?
1 to 50 µM

* * *

# experimental_target: Ras farnesyl transferase (Homo sapiens, UniProt P49354+P49356)
# Construct: made in house
# run_description: In vitro inhibitory activity for Ras farnesyl transferase, K-Ras substrate
# Format: biochemical
# condition: in vitro farnesyl transferase assay, K-Ras; read-out: K-Ras IC50
property: IC50 (nM)
Respond with the bare value in nM.

IC50 for CC(c1ccccc1)n1cncc1Cn1cc(C(=O)N2CCOCC2)c(-c2cccc3ccccc23)c1 (stereo in doubt) ?
6.6

Thanks! And COCCN(C)C(=O)c1cn(Cc2cncn2Cc2cccc3ccccc23)cc1-c1cccc2ccccc12 ?
8.5

Thanks! And O=C(c1cn(Cc2cncn2CCc2ccccc2)cc1-c1cccc2ccccc12)N1CCOCC1 ?
10

---
IC50 for C[C@@H](c1ccccc1)n1cncc1Cn1cc(C(=O)N2CCOCC2)c(-c2cccc3ccccc23)c1 ?
6.6

* * *

# experimental_target: Ras farnesyl transferase (Homo sapiens, UniProt P49354+P49356)
# Construct: made in house
# run_description: In vitro inhibitory activity for Ras farnesyl transferase, H-Ras substrate
# Type: biochemical
# condition: recombinant farnesyl transferase 4.5 nM, Ras substrate protein 1.5 μM, tritium-farnesylpyrophosphate 0.15 μM, 30 minutes at 37° C.; read-out: H-Ras IC50
property: log10 IC50 (log10 of the value in nM)
Plainly stated, the numbers are log10 of IC50 given in nM.

Some solved cases for reference:
log10 IC50 for COCCN(C)C(=O)c1cn(Cc2cncn2CCCc2ccccc2)cc1-c1cccc2ccccc12 ?
0.78

Thanks! And O=C(c1ccccc1Cl)c1cn(Cc2c[nH]cn2)cc1-c1cccc2ccccc12 ?
1.78

Thanks! And CCCCc1c(-c2cccc3ccccc23)c(C(=O)c2ccc(Cl)cc2Cl)cn1Cc1c[nH]cn1 ?
2.08

Thanks! And COCCN(C)C(=O)c1cn(Cc2cncn2Cc2ccc(Br)cc2)cc1-c1cccc2ccccc12 ?
0.30

Thanks! And Cc1cccc(Cn2cncc2Cn2cc(C(=O)N3CCN(C)CC3)c(-c3cccc4ccccc34)c2)c1 ?
0.15

---
log10 IC50 for O=C(c1cn(Cc2cncn2Cc2ccc(Cl)cc2)nc1-c1cccc2ccccc12)N1CCOCC1 ?
2.30

Thanks! And O=C(c1cccc(-c2ccccc2)c1)c1cn(Cc2c[nH]cn2)cc1-c1cccc2ccccc12 ?
2.62

Thanks! And O=C(c1ccc(F)cc1)c1cn(Cc2c[nH]cn2)cc1-c1cccc2ccccc12 ?
1.40

Thanks! And COCCN(C)C(=O)c1cn(Cc2cncn2CCc2ccc(Cl)cc2)cc1-c1cccc2ccccc12 ?
0.30

Thanks! And N#Cc1ccc(Cn2cncc2Cn2cc(C(=O)c3cccs3)c(-c3cccc4ccccc34)c2)cc1 ?
0.30

Thanks! And COCCN(C)C(=O)c1cn(Cc2cncn2Cc2ccc(Cl)cc2)nc1-c1cccc2ccccc12 ?
1.30

Thanks! And COc1ccc(Cn2cncc2Cn2cc(C(=O)N3CCN(C)CC3)c(-c3cccc4ccccc34)c2)cc1 ?
0.30

Thanks! And CN1CCN(C(=O)c2cn(Cc3cncn3CCc3cccc(Cl)c3)cc2-c2cccc3ccccc23)CC1 ?
0.30

Thanks! And CN1CCN(C(=O)c2cn(Cc3cncn3CCc3ccc(Br)cc3)cc2-c2cccc3ccccc23)CC1 ?
0.30

* * *

// values below are reported pIC50
# experimental_target: Ras farnesyl transferase (Rattus norvegicus, UniProt Q02293+Q04631)
# Construct: endogenous in cells; host or cells: Rat2 fibroblasts transformed with H-Ras or with an H-Ras/K-Ras C-terminus fusion
# run_description: In vivo (cellular) inhibitory activity for Ras farnesyl transferase, Rat2 cell line transformed with fused protein of H-Ras substituted with polybasic lysine domain at C-terminus of K-Ras
# Assay type: cell-based
# condition: Rat2 cell line transformed with H-Ras fused with polybasic lysine domain of K-Ras C-terminus; concentration inhibiting 50% of farnesyl bonding; read-out: K-Ras CIC50
# Protocol: In the present experiment, Rat2 cell line which expresses C-Harvey-Ras protein having transforming activity and Rat2 cell line (Korean patent application No. 97-14409) which is transformed with fused protein of H-Ras substituted with polybasic lysine domain at C-terminus of K-Ras were used. The experiment was performed by the modified Declue's method (Declue. J. E. et al., Cancer Research, 1991, 51, 712). Hereinafter, the experimental method will be described in more detail. […]
pIC50: −log10 of the molar value.

Some solved cases for reference:
Test system Ras farnesyl transferase (Rattus norvegicus, UniProt Q02293+Q04631); read-out pIC50; what value for COCCN(C)C(=O)c1cn(Cc2cncn2CCc2ccccc2Cl)cc1-c1cccc2ccccc12 [Compound 23] ?
4.30 to 5.00

Thanks! And O=C(c1cn(Cc2c[nH]cn2)cc1-c1cccc2ccccc12)N1CCOCC1 [Compound 85] ?
< 4.30

Thanks! And N#Cc1ccc(Cn2cncc2Cn2cc(C(=O)c3cccs3)c(-c3cccc4ccccc34)c2)cc1 [Compound 73] ?
< 5.00

---
Test system Ras farnesyl transferase (Rattus norvegicus, UniProt Q02293+Q04631); read-out pIC50; what value for COCCN(C)C(=O)c1cn(Cc2cncn2Cc2ccc3ccccc3c2)cc1-c1cccc2ccccc12 [Compound 29] ?
4.70 to 5.00

Thanks! And O=C(c1ccc(Oc2ccccc2)cc1)c1cn(Cc2c[nH]cn2)cc1-c1cccc2ccccc12 [Compound 67] ?
< 4.30
